assay: Quantitative High-Throughput drug screen in 47 multiple myeloma cell lines against the NCATS MIPE library collection: JIM1_ECACC cell viability assay (AID 1918964); conditions: JIM1 myeloma viability, CellTiter-Glo ATP luminescence, 48 h; series mostly up to 45.8 µM
Inconclusive results are not listed. The source made the active and inactive calls. Calls come from the whole dose curve; as a rule, active = well fitted cell-killing curve with a large enough effect; inconclusive = small, poorly fitted or top-dose-only effect, or effect the other way; inactive = no such curve, though single readings can be large or run the other way. Starred links: 1 amine or outer side, 2 acyl side, 3 side chain; linkers in the order of their positions; H or OH if unused. Positions of bridges follow the written chain, without caps; N, C: chain ends. Non-standard residues stand in square brackets, D forms with d. Residues, ends and D or L forms follow the SMILES beside them. Chains are numbered I, II in the order given. Actinocin(9to1) = Cc1c2oc3c(C)ccc(C(=O)[*:1])c3nc-2c(C(=O)[*:2])c(N)c1=O; NMeV = CN[CH](C(=O)O)C(C)C; Sar = CNCC(=O)O
Returns: one label drawn from true = active, false = inactive

Solved cases (8 shown):
Cc1[nH]c(C=C2C(=O)Nc3ccccc32)c(C)c1CCC(=O)O: true
Cn1c(Nc2ccc(C(F)(F)F)cc2)nc2cc(Oc3ccnc(-c4ncc(C(F)(F)F)[nH]4)c3)ccc21: true
C=CCNc1c(O)cc2c(O)c1C[C@@H](C)C[C@H](OC)[C@@H](O)[C@@H](C)C=C(C)[C@H](OC(N)=O)[C@@H](OC)C=CC=C(C)C(=O)N2: true
NC(=NCCCCCCN=C(N)N=C(N)Nc1ccc(Cl)cc1)N=C(N)Nc1ccc(Cl)cc1: true
CC(C=CC(=O)NO)=C[C@@H](C)C(=O)c1ccc(N(C)C)cc1: true
Cc1ccc([N+](=O)[O-])cc1S(=O)(=O)N(C)N=Cc1cnc2ccc(Br)cn12: true
C[C@](Cc1c[nH]c2ccccc12)(NC(=O)OC1C2CC3CC(C2)CC1C3)C(=O)NC[C@H](NC(=O)CCC(=O)O)c1ccccc1 (stereo not given in full): false
OC[C@@H](O)[C@@H](O)[C@H](O)[C@@H](O)CO: false

Which outcome was assigned to CN(C)CC(=O)N1CCC(c2ccc(NC(=O)c3ncc(C#N)[nH]3)c(C3=CCCCC3)c2)CC1 in this test?
true

Cool, now C#CCC(Cc1cnc2nc(N)nc(N)c2n1)c1ccc(C(=O)N[C@@H](CCC(=O)O)C(=O)O)cc1 (stereo not given in full)
false

Would you mind doing CCOc1cc2ncc(C#N)c(Nc3ccc(OCc4ccccn4)c(Cl)c3)c2cc1NC(=O)C=CCN(C)C as well?
true

Thanks! And CC(=O)O[C@H]1C[C@@H]2CC[C@H]3[C@H]4C[C@H]([N+]5(C)CCCCC5)[C@@H](OC(C)=O)[C@@]4(C)CC[C@@H]3[C@@]2(C)C[C@H]1[N+]1(C)CCCCC1 ?
false

Likewise for Cc1c2oc3c(C)ccc(C(=O)NC4C(=O)NC(C(C)C)C(=O)N5CCCC5C(=O)N(C)CC(=O)N(C)C(C(C)C)C(=O)OC4C)c3nc-2c(C(=O)NC2C(=O)NC(C(C)C)C(=O)N3CCCC3C(=O)N(C)CC(=O)N(C)C(C(C)C)C(=O)OC2C)c(N)c1=O (stereo not given) (I: TVP[Sar][NMeV] / II: TVP[Sar][NMeV]; ester I:1-I:C, II:1-II:C; linker I:N-II:N via Actinocin(9to1); configuration not given here) ?
false

And CCN(CC)CCNC(=O)c1c(C)[nH]c(C=C2C(=O)Nc3ccc(F)cc32)c1C ?
true

Please answer likewise for CN(C)CCN1C(=O)c2cccc3cc(N)cc(c23)C1=O
true
